Hey, just so you know, these numbers are from paper PMC12102759.

B1: AMOTL2 peptide 64-79 (Angiomotin-like protein 2), 16-mer library wild type / TNKS ANK (TNKS 12 ANK repeats, residues 174-649) (parent)
chain 1: QVLQQATRQEPQGQEH
chain 2: TGVPAVSGALRELLEACRNGDVSRVKRLVDAANVNAKDMAGRKSSPLHFAAGFGRKDVVEHLLQMGANVHARDDGGLIPLHNACSFGHAEVVSLLLCQGADPNARDNWNYTPLHEAAIKGKIDVCIVLLQHGADPNIRNTDGKSALDLADPSAKAVLTGEYKKDELLEAARSGNEEKLMALLTPLNVNCHASDGRKSTPLHLAAGYNRVRIVQLLLQHGADVHAKDKGGLVPLHNACSYGHYEVTELLLKHGACVNAMDLWQFTPLHEAASKNRVEVCSLLLSHGADPTLVNCHGKSAVDMAPTPELRERLTYEFKGHSLLQAAREADLAKVKKTLALEIINFKQPQSHETALHCAVASLHPKRKQVTELLLRKGANVNEKNKDFMTPLHVAAERAHNDVMEVLHKHGAKMNALDTLGQTALHRAALAGHLQTCRLLLSYGSDPSIISLQGFTAAQMGNEAVQQILSESTPIRTSD

Variants of: B1
ASSAY PROTOCOL: proteomic peptide phage display deep mutational scan (ProP-PD DMS): M13 P8 16-mer library selected against immobilised GST-tagged bait for four days (rounds), NGS of the eluted pools per day and pseudo-replica
MEASUREMENT SETUP: with TNKS ANK (TNKS 12 ANK repeats, residues 174-649); bait immobilised on MaxiSorp plates (10 µg), library pre-cleared on GST, 2 h binding at 4 °C, five washes; one round per day, days 1-4; value from days 2 and 3; keep out of graded; scale: average fractional NGS count over selection days 2 and 3
EXPERIMENTAL READOUT: screen value
Answer with a bare number; do not write a unit.

Query (variant): chain 1 A6K ; field requested: screen value
7.72e-05

Query (variant): chain 1 R8F ; field requested: screen value
0

Query (variant): chain 1 A6Y ; field requested: screen value
5.3e-05

Query (variant): chain 1 P11Q ; field requested: screen value
0

Query (variant): chain 1 T7D ; field requested: screen value
6.07e-05

New cases:
Query (variant): chain 1 Q9K ; field requested: screen value
4.55e-05

Query (variant): chain 1 E15G ; field requested: screen value
6.84e-05

Query (variant): chain 1 H16G ; field requested: screen value
6.49e-05

Query (variant): chain 1 Q14G ; field requested: screen value
0.000146

Query (variant): chain 1 P11I ; field requested: screen value
5.08e-05

Query (variant): chain 1 Q12R ; field requested: screen value
4.06e-05
